Attribute: PET hydrolysis product formed
assay: PET hydrolysis product formed (TPA+MHET+BHET, UV-Vis) per mg enzyme (mmol/mg enzyme); higher = more PET depolymerisation activity; extreme values may be limits of the assay; conditions: PET substrate: cryPow; 70 °C; pH 6.5; 2 h
outcome.measure: PET hydrolysis product formed

{"sequence": "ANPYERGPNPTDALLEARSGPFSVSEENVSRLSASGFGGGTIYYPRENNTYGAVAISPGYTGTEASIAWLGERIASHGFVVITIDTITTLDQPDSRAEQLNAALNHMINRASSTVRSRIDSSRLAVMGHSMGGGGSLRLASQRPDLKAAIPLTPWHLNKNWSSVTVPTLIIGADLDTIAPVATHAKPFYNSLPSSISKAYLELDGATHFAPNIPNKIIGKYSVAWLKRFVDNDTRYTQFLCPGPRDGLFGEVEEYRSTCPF [TfCut2]", "outcome.measure": "PET hydrolysis product formed", "result": 0}
{"sequence": "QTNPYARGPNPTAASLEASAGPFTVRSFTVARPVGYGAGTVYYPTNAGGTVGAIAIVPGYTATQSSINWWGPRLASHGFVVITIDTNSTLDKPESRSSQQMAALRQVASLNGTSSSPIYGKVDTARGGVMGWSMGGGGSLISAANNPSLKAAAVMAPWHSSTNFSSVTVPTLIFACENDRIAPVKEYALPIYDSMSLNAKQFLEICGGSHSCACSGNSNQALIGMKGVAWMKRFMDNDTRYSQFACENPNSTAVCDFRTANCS [HotPETase]", "outcome.measure": "PET hydrolysis product formed", "result": 0.0748}
